ENDPOINT: melting point

Task item: Which melting point is reported for this compound? Fc1ccc(C2C3=C(CCCC3)N=C3C=CC(Cl)=CN32)cc1 (stereo not shown) [Compound 4g]
Reply: 88 to 93 °C

Task item: So what does the record say about melting point for C1=CC2=NC3=C(CCCC3)C(c3ccccc3)N2C=C1 (stereo not shown) [Compound 4a] ?
Reply: 154 to 156 °C

Task item: Entry under review: C1=CC2=NC3=C(CCCC3)C(c3c[nH]c4ccccc34)N2C=C1 (stereo not shown) [Compound 4j] . Reported melting point?
Reply: 180 to 182 °C

Task item: Which melting point is reported for this compound? O=[N+]([O-])c1ccc(C2C3=C(CCCC3)N=C3C=CC=CN32)cc1 (stereo not shown) [Compound 4c]
Reply: 150 to 151 °C

Task item: Report melting point for C1=CC2=NC3=C(CCCC3)C(c3cn(Cc4ccccc4)c4ccccc34)N2C=C1 (stereo not shown) [Compound 4i] please.
Reply: 185 to 186 °C

Task item: Name the reported melting point value associated with the compound COc1ccc(C2C3=C(CCCC3)N=C3C=CC=CN32)cc1 (stereo not shown) [Compound 4d]
Reply: 88 to 89 °C

Task item: Consider the compound shown here: ClC1=CN2C(=NC3=C(CCCC3)C2c2ccc(Cl)cc2)C=C1 (stereo not shown) [Compound 4f] What is its recorded melting point?
Reply: 131 to 132 °C
